Values were extracted from patent US20170066831A1.

We begin with a simple list: items and their reported pKd.
# tgt: T1, human ST2L extracellular domain with C-terminal His6 tag (human, UniProt Q01638 19-328)
# T1 construct: also called huST2L-ECD; ST2L-ECD
# T1 sequence: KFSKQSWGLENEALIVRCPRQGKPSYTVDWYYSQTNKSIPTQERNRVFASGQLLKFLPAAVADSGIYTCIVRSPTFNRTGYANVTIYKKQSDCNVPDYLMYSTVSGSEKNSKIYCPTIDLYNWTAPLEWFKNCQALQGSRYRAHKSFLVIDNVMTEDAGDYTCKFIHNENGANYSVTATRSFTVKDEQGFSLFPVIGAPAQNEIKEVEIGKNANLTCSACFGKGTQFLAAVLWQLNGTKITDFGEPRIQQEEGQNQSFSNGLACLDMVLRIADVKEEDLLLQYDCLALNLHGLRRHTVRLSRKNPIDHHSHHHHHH
# measurement_protocol: SPR, mAb captured, ST2L-ECD in solution
Would you please state pKd, meaning minus log10 of the concentration in mol/L, as a bare number?

[in] Looking for the measured pKd of STLM228 (antibody, V domains shown, VH STLH201 + VL STLL276) VH: EVQLVQSGAEVKKPGATVKISCKVSAFNIKDDYMHWVQQAPGKGLEWMGRIDPAIGNTEYAEKFQGRVTITADTSTDTAYMELSSLRSEDTAVYYCATGDFYAMAYWGQGTLVTVSS VL: DIQMTQSPSTLSASVGDRVTITCITNTDIDDVIHWYQQKPGKAPKLLIYEGNTLRPGVPSRFSGSGSGTEFTLTISSLQPDDFATYYCLQSDNMLTFGQGTKLEIK , can you help?
[out] 10.28
